Value source: PubChem BioAssay

Assay: inhibitors of TNFa-induced NFkB p65 translocation, primary screen, imaging, HUVEC, MLSMR starter and 10KST1 sets (AID 438);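 further: compound added about 3h40 before a 20 min TNFalpha stimulation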
Conditions: HUVEC TNFa-induced p65 nuclear translocation; measured here: nuclei count (cytotoxicity indicator), at 2.08 µM
cell count values for the compounds below.
Enter the number alone.

Answer with the recorded cell count for the compound listed here: `CCO/C(C)=N/n1c2nc3ccccc3nc2c2c(=O)n(Cc3ccccc3Cl)c(C)nc21`
649

Answer with the recorded cell count for the compound listed here: `CCOC(=O)Cn1nc(C)c2ccccc2c1=O`
579

Answer with the recorded cell count for the compound listed here: O=C(C1CCN(C2CC(=O)N(c3ccc(F)cc3)C2=O)CC1)N1CCOCC1 (centres undefined)
326

Answer with the recorded cell count for the compound listed here: OC(CNCC1COc2ccccc2O1)COCc1cccs1 (centres undefined)
615

Answer with the recorded cell count for the compound listed here: CC1CCCN(S(=O)(=O)c2coc(C(N)=O)c2)C1 (centres undefined)
697

Answer with the recorded cell count for the compound listed here: `CCc1nc(NCC(C)C)c(C#N)c2c1COC(C)(C)C2`
547

Answer with the recorded cell count for the compound listed here: `COC(=O)CN(c1ccc(C)c(Cl)c1)S(C)(=O)=O`
322

Answer with the recorded cell count for the compound listed here: `Cc1ccccc1NC(=O)Cc1nnc(SCC(=O)N2CCN(c3ccccc3)CC2)n1C`
483

Answer with the recorded cell count for the compound listed here: `O=C(CCCNS(=O)(=O)c1ccccc1)NCc1ccco1`
242
